Below, each entry is listed alongside its reported kon.
system_under_test: T1, cynomolgus monkey CTLA4-his protein (Acro biosystems, Cat#CT4-C5227) (cynomolgus monkey, UniProt G7PL88 36-161)
T1 construct: bought recombinant protein; also called Cynomolgus CTLA4-his; not shown: his tag
T1 sequence: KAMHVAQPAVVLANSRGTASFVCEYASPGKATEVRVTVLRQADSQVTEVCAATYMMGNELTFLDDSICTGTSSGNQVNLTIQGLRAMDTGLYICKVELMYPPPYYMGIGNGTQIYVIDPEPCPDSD
assay_text: SPR, Biacore; antibody captured on anti-human IgG CM5 chip, CTLA4-his as analyte
Output spec: scalar in M⁻¹ s⁻¹, unitless text.

// worked examples, kon included
binder="huD1D5-V9 (antibody, human IgG4 S228P, kappa, V domains shown, humanized IgG4/kappa; cell supernatant on Octet, purified antibody in Biacore, ELISA, FACS and the functional assay; also called hu CTLA4 D1D5-V9; huDID5-V9) VH: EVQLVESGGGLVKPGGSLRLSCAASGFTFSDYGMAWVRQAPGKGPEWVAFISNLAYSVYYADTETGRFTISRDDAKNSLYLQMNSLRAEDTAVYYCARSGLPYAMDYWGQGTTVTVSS VL: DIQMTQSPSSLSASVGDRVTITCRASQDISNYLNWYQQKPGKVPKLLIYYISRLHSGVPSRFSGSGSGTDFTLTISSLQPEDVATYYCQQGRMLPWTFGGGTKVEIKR" value=271000
binder="chimeric C1D1 anti-CTLA4 antibody (antibody, human IgG4 S228P, kappa, V domains shown, mouse variable domains on human IgG4/kappa, made in 293F cells) VH: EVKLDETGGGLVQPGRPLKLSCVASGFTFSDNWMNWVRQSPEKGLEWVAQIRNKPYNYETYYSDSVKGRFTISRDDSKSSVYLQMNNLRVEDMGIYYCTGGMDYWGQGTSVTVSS VL: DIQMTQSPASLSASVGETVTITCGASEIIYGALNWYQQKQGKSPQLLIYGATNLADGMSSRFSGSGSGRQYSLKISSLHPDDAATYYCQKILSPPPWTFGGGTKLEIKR" value=1.64e+06
binder="huC1D1-V8 (antibody, human IgG4 S228P, kappa, V domains shown, humanized IgG4/kappa; cell supernatant on Octet, purified antibody in Biacore, ELISA, FACS and the functional assay; also called hu CTLA4 C1D1-V8) VH: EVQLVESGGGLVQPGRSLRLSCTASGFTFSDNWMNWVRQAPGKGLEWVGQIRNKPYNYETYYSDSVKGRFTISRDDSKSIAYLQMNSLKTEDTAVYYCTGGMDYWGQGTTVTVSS VL: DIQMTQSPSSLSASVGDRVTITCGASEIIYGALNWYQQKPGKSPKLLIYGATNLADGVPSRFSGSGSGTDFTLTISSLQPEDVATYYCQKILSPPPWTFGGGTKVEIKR" value=150000

## Task Quick one: kon of chimeric D1D5 anti-CTLA4 antibody (antibody, human IgG4 S228P, kappa, V domains shown, mouse variable domains on human IgG4/kappa, made in 293F cells) VH: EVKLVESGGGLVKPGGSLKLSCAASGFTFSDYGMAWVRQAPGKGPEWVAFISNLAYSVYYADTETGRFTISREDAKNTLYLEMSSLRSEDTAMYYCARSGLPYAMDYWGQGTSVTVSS VL: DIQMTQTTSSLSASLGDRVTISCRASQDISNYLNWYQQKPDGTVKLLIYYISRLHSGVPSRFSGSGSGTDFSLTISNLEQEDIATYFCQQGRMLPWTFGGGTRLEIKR ?
## Result 521000

// provenance: patent US20230212304A1
